assay target: Vasoactive intestinal polypeptide receptor 2 (Homo sapiens)
Sequence (whole entry): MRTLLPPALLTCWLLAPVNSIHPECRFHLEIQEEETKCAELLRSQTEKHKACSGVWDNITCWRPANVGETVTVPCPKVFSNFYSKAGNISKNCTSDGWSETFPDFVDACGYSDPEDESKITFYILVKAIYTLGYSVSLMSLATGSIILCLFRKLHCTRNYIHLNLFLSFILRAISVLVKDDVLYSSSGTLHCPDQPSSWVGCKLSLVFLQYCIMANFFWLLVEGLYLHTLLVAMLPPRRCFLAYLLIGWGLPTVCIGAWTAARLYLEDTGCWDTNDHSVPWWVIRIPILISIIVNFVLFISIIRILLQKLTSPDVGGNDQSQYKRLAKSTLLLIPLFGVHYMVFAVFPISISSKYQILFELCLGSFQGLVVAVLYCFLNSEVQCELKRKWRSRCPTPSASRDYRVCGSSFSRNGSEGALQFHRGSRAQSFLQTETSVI
run description: Antagonist activity at recombinant human N-terminal signal peptide/FLAG epitope-tagged Rluc8-fused VIPR2 expressed in HEK293 cells assessed as inhibition of VIP-induced human mVenus-beta-arrestin2 binding at 5 uM preincubated for 5 mins with luciferin, coelenterazine H followed by VIP addition measured after 5 mins by BRET assay relative to control
Assay type: cell-based
test readout: inhibition (%)

Take a look at these entries with their results.
{"columns": ["molecule", "inhibition (%)"],
 "data": [
  ["CC(C)(C)c1ccc(C(=O)NC[C@@H](O)C[C@@H](Cc2ccccc2)C(=O)N[C@H]2c3ccccc3C[C@H]2O)cc1", 7.8],
  ["CC1CCC(NC(=O)[C@H](Cc2ccccc2)C[C@H](O)CNS(=O)(=O)c2ccc([N+](=O)[O-])cc2)CC1 (some centres not stated)", 0.4],
  ["O=C(NC1CCCc2ccccc21)[C@@H](Cc1ccccc1)C[C@H](O)CNS(=O)(=O)c1ccc([N+](=O)[O-])cc1 (some centres not stated)", 0.6],
  ["CCCNc1ccc(S(=O)(=O)NC[C@@H](O)C[C@@H](Cc2ccccc2)C(=O)N[C@H]2c3ccccc3C[C@H]2O)cc1", 6.7],
  ["O=C(NC[C@@H](O)C[C@@H](Cc1ccccc1)C(=O)N[C@H]1c2ccccc2C[C@H]1O)c1cccc([N+](=O)[O-])c1", -4]
]}

A. CS(=O)(=O)NC[C@@H](O)C[C@@H](Cc1ccccc1)C(=O)N[C@H]1c2ccccc2C[C@H]1O
B. CC(C)(C)c1ccc(S(=O)(=O)NC[C@@H](O)C[C@@H](Cc2ccccc2)C(=O)N[C@H]2c3ccccc3C[C@H]2O)cc1
Data request: Between the entries labeled A and B , whose measured inhibition is lower? State the label of the item chosen.
Data returned: A
